tested on: Plasmodium falciparum; test: GSK_TCMDC: Inhibition of Plasmodium falciparum Dd2 in whole red blood cells, using parasite LDH activity as an index of growth. Test compounds present at 2uM; assay type: functional
readout type: Inhibition (%)
Respond with the bare value in %.

Here's what some known entries look like.
O=C(Cc1ccccn1)Nc1cccc(-c2cccc(-c3nc4cc(C(F)(F)F)ccc4[nH]3)c2)c1 :: 22
CC1(C)Cc2c([nH]c3ccccc23)C(CCCCCCCCC2=NC(C)(C)Cc3c2[nH]c2ccccc32)=N1.Cl :: 88
Cc1sc2ccc(Cl)cc2c1S(=O)(=O)Nc1ccc2nccc(N3CC(C)NC(C)C3)c2c1.Cl (stereo not given) :: 100
Cc1[nH]cnc1-c1cccc(NC(=O)c2cc3ccccc3s2)c1 :: 48
Cc1ccnc(-n2c(C)cc(C=C3SC(=Nc4ccccc4)N(Cc4ccco4)C3=O)c2C)c1 :: 98
CC(=NNC(=N)N)c1ccc2c(ccc3ccccc32)c1.Cl :: 15
Cc1cc(N[C@@H](Cc2ccccc2)C(=O)NCc2cccs2)nc(Nc2ccccc2)n1.O=C(O)C(F)(F)F :: 36
Cc1cccc(Cn2c(Cc3ccccc3)nnc2Sc2ccc([N+](=O)[O-])c(C#N)c2)c1 :: 3
O=C(NCCN1CCOCC1)c1ccc(CNC(=O)c2ccc(O)c(-c3ccc(Cl)c(Cl)c3)c2)cc1 :: 55
CCc1ccc(CN2CCC(CNC(=O)c3cc(-c4ccccc4Cl)cs3)C2)cc1.O=C(O)C(F)(F)F (stereo not given) :: 0

Entry CN(C)c1ccc(Br)c(Br)c1 — recorded Inhibition = 0

Entry CC(=O)Nc1ncc(C(=O)Nc2cccc(-c3ccc(-c4nc5cc(C(F)(F)F)ccc5[nH]4)cc3)c2)s1 — recorded Inhibition = 94

Entry O=C(Nc1cccc(-c2cc(-c3c(Cl)cccc3Cl)no2)c1)c1cnc2ccccc2c1 — recorded Inhibition = 34

Entry CCNc1cc(C(=O)N[C@@H](Cc2ccccc2)[C@H](O)CNCC(C)C)cc(N2CCCC2=O)c1 — recorded Inhibition = 97

This collection of values is drawn from ChEMBL document CHEMBL1157539.
